koff for assorted binders
Target: T1, soluble mouse GPNMB (recombinant extracellular domain) (mouse, UniProt Q99P91 23-502)
T1 construct: also called moGPNMB; not shown: C-terminal polyhistidine or Avi-His tag
T1 sequence: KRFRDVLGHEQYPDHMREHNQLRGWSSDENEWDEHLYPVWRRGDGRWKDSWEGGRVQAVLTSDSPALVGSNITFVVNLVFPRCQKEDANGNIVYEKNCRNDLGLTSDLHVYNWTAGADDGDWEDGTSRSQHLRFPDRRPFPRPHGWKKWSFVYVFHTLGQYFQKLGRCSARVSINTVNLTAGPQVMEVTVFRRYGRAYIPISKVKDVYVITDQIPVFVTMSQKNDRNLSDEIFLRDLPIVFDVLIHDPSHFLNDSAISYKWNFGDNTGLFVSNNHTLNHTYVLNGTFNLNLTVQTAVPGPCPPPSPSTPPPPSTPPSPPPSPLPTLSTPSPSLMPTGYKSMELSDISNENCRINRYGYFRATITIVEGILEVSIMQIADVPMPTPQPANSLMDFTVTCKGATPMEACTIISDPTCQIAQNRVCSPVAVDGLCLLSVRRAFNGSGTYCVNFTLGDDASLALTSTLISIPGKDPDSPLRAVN
Assay: SPR Biacore, IgG captured
Unit s⁻¹ implied. Number only.

Reference set, count: 2
Binder	koff (s⁻¹)
anti-GPNMB antibody GPN-87 (antibody, V domains shown) VH: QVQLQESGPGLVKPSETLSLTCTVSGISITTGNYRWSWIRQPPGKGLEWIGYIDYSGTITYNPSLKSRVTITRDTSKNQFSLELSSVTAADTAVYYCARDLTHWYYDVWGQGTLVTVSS VL: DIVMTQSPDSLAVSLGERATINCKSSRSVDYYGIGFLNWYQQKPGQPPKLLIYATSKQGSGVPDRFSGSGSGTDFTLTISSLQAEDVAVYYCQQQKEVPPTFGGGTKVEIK	0.00028
anti-GPNMB antibody GPN-88 (antibody, V domains shown) VH: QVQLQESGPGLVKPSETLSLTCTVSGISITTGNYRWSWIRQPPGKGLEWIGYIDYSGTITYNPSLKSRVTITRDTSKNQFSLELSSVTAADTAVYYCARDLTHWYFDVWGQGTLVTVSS VL: DIVMTQSPDSLAVSLGERATINCKSSRSVDYYGIGFLNWYQQKPGQPPKLLIYATSHQGSGVPDRFSGSGSGTDFTLTISSLQAEDVAVYYCQQQKHVPPTFGGGTKVEIK	0.00017

Moving on to the next binder.
Return reported koff. Input binder: anti-GPNMB antibody GPN-83 (antibody, V domains shown) VH: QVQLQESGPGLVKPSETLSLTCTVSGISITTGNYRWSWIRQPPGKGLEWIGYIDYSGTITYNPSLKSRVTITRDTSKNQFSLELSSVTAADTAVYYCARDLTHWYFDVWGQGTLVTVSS VL: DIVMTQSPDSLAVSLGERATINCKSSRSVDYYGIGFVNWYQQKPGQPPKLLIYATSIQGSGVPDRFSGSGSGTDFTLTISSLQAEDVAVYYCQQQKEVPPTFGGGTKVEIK 0.00024
